System: MS2 coat protein
Experiment: apparent KD of MS2 coat protein; higher = weaker reporter binding
Settings: Eterna round: R107; input ligand: theophylline 2 mM
sequences and their reported apparent KD of MS2 coat protein
Write down the value, and be sure its unit follows.

>>> reported_result("GGACGAAGUUUCUUGUCCGGUCGCUGAGAAGGAGCGCGGUAAACCGCAGGUAGGUCGCUCAGAAAUACAUGAGGAUCACCCAUGU [Orsosous]")
"21.4 nM"
>>> reported_result("GGAUAGGACACGGCCGCCACUACCUAGGAUACUAGCAACAUUUGGGUACAAGAGGAUCACCCUUGUAGGACCGGGUGUCCUAUCG")
"25.5 nM"
>>> reported_result("AUACAUGAGGAUCACCCAUGUGAUGGCCGGCGAGGACCGGUACGGCCGCCACUCGUGAUCCGUCCUGAGAGCAAAGCUCUCAGCA [Macete]")
"292 nM"
>>> reported_result("CUUCGCAUAGGAAAACUAUGUGAAGAAAAUCGAGGACCGGUACGGCCGCCACUCGUCCUCAACAUGAGGAUCACCCAUGUAAUAA [Mat - Exclusion - Trytophan A - D6]")
"20.4 nM"
>>> reported_result("CAUAUAUAAGCGGCCGCCACUUACUCAUGAGGUAACAACAUGAGGAUCACCCAUGUUUGAGGAUCAAGGACCGGGCUUAUAUAUG [AstrosSSTryB#5]")
"28.5 nM"
>>> reported_result("AGUAACAUGAGGAUCACCCAUGUAUGAGAAGGAGCGUGUUUUAACACAGGUAGGUCGCUCAAUAUUAAUUUAUUAGAUACAUUUA [JR_SSArginiA_Sub006]")
"36.8 nM"
>>> reported_result("AGGGAAUGAAUAGAAUGAGAUGACACAGAAGGAGCGCCGAUUAAGGCAGGUAGGUCGCUGACAACAUGAGGAUCACCCAUGUUAA [#11 Same State - Arginine A]")
"17.5 nM"
>>> reported_result("CCUAUGCAGUCGGCCGCCACUGAACAUGAGGAUCACCCAUGUAAUUAAAAUUAUGAUCCUGAAAUCAGGACCGGGACUGUAUAGG [Ex Tryptophan B 5]")
"431 nM"
>>> reported_result("GCGCGCGCCGAAAGGCGCGCGUGUUGCGAUACCAGCCCGGAAACGGGCCCUUGGCAGCGCACAUGAGGAUCACCCAUGUCAUGUU [Exclusion - Theophylline A Attempt #1 (HarryS)]")
"24.5 nM"
>>> reported_result("AAUUCCUCACAUGAGGAUCACCCAUGUGAAGGAGCGCCGAAUAAGGCAGGUAGGUCGCACAUGGAAACCUCUACGAAAGUAGUAA [XArg-A 3 NuV1V2]")
"18.2 nM"

Request: apparent KD of MS2 coat protein lookup needed for CCGGCCAGGGCGGCCGCCACUGAACGUGGAAGAAAGAAAACAUGAGGAUCACCCAUGUAAAUCCUCAGGACCGGGCCAGGGCCGG , thanks.
Result: 67 nM

Request: apparent KD of MS2 coat protein lookup needed for CCGUCACAUGAGGAUCACCCAUGUGCGGAAGGAGCGGACGACAGUCCAGGUAGGUCGCCGUAUAGCCAAUGACCAGCAGUGUCGG [Betesotiqu] , thanks.
Result: 9.93 nM

Request: apparent KD of MS2 coat protein lookup needed for UAGCGAUUUGGUGAUACCAGACGUGUGCAGUCCUCAGACAUGAGGAUCACCCAUGUAUGCGUCCCUUGGCAGCGCUAUGAGGACA [Theo B Ex t6] , thanks.
Result: 201 nM
